pKi: −log10 of the molar value.
// cross-study collection: pKi for Sodium-dependent dopamine transporter (Homo sapiens)
measured parameter: pKi

| molecule | rel | endpoint result |
| --- | --- | --- |
| FC(F)(F)c1cc(Oc2nccc3occc23)ccc1-c1cccc2nccn12 | = | 5.04 |
| O=C(NCCCCC(c1ccc(F)cc1)c1ccc(F)cc1)Nc1ccc(Cl)c(C(F)(F)F)c1 | = | 8.19 |
| CCOC(=O)[C@@H]1CN(CCn2c(=O)[nH]c3ccccc3c2=O)CC[C@@H]1c1ccc(N(C)C)cc1 (racemic) | < | 5.00 |
| CNCCC(c1ccccc1)c1ccc2[nH]ccc2c1 (stereo unspecified) | = | 6.70 |
| CNCc1cc(C#CCCN2CCOCC2)ccc1Oc1ccc(SC)cc1 | = | 6.15 |
| Fc1cccc(C2CCNCC2)c1OCc1ccccc1 | = | 5.13 |
| Fc1ccc(Cl)c(Oc2ncccc2C2CCNCC2)c1 | < | 5.21 |
| Fc1cccc(Cl)c1Oc1ncccc1OC1CCNC1 (stereo unspecified) | < | 5.34 |
| Fc1cccc(Oc2ncccc2C2CCNCC2)c1F | < | 5.18 |
| CCOC(=O)[C@@H]1CN(CCn2c(=O)[nH]c3ccccc3c2=O)CC[C@@H]1c1cccc2c1OCCO2 (racemic) | < | 5.00 |
| CN1CCc2c(c3cccc4c3n2CCc2ccccc2-4)C1 | < | 5.00 |

* * *

A compilation of published Ki results with Sodium-dependent dopamine transporter (Homo sapiens, UniProt Q01959).
Sequence (Q01959 whole entry): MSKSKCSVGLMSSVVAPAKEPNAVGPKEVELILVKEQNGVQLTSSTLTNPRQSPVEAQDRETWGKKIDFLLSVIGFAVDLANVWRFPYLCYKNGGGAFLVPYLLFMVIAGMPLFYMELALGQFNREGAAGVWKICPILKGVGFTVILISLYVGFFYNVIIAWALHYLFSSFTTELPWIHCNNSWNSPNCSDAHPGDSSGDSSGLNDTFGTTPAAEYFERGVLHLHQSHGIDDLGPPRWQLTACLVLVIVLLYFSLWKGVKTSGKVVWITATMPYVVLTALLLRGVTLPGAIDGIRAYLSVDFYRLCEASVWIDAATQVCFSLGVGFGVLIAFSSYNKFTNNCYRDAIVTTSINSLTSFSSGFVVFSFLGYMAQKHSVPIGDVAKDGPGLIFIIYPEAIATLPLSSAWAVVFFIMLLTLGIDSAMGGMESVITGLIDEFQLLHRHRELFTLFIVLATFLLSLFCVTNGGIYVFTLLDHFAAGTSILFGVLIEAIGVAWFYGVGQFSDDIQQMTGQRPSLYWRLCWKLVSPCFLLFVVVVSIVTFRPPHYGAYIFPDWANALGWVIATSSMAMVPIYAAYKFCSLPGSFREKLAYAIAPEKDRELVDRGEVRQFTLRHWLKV
Rule: Ki below 500 nM gives yes (1), anything at or above gives no (0).

| compound | assigned class |
| --- | --- |
| CCCCN1CCC(COC(=O)c2ccc(N)c(OC)c2)CC1 | no (0) |
| Cc1ccc(C(CCCCNC(=O)Nc2ccc(Cl)cc2)c2ccc(C)cc2)cc1 | no (0) |
| COc1ccc(C(CCCCNC(=O)Nc2ccc(Cl)c([N+](=O)[O-])c2)c2ccc(OC)cc2)cc1 | yes (1) |
| O=C(Cc1ccccc1)NCCNCCOC(c1ccc(F)cc1)c1ccc(F)cc1 | yes (1) |
| Fc1ccccc1Oc1ncccc1C1CCNCC1 | no (0) |
| COc1ccc2ccccc2c1CCC1CCC(CCN)O1 (stereo unspecified) | no (0) |
| COc1ccccc1-c1ccc(C(=O)N2CCN(C(=O)c3ccc4cc[nH]c4c3)[C@@H](C)C2)cc1 | no (0) |
| FC(F)(F)c1cc(Oc2nccc3ccsc23)ccc1-c1cccc2nccn12 | no (0) |
| CN(C)Cc1ccccc1Sc1ccc(CO)cc1N | no (0) |
| c1ccc(CCN[C@H]2C3C4CC5C6C4CC3C6C52)nc1 (stereo partly specified) | no (0) |
| CN(C)Cc1ccccc1Sc1ccc(CCCF)cc1N | no (0) |

* * *

Literature survey of Ki (system: UniProt:Q01959).

| smiles repr | Ki |
| --- | --- |
| Cc1cc(N)c(Sc2ccccc2CN(C)C)cc1F | > 10 µM |
| O=C(Cc1ccccc1)NCCCNCCOC(c1ccc(F)cc1)c1ccc(F)cc1 | 0.061 µM |
| C[C@@H]1CCCN1C(=O)c1ccc(-c2ccc3c(c2)CCN(CCN2CCCC2)C3=O)cc1 | > 10 µM |
| N#CN1CC[C@@H](C(=O)Nc2nc3c(s2)CN(C(=O)CN=[N+]=[N-])CC3)C1 | > 10 µM |
| N#Cc1cc(F)cc(C#Cc2csc(CF)n2)c1 | > 10 µM |

* * *

pKi: −log10 of the molar value.
Header: pKi / Sodium-dependent dopamine transporter (Homo sapiens) / multiple publications

| compound | rel | pKi |
| --- | --- | --- |
| O=C(NCCCCN(c1ccc(F)cc1)c1ccc(F)cc1)Nc1ccc(Cl)c(C(F)(F)F)c1 | = | 7.37 |
| COc1ccc(-c2ccc(C(=O)N3CCN(C(=O)c4ccc5cc[nH]c5c4)[C@@H](C)C3)cc2)cc1 | < | 5.00 |
| NCC1CCC(CCc2cccc3ccccc23)O1 (stereo unspecified) | < | 5.00 |
| Fc1cccc(Cl)c1Oc1cccc(F)c1OC1CCNCC1 | < | 5.20 |
| CC(C)CN(C(=O)c1cccc(C(F)(F)F)c1Cl)[C@H]1CCNC1 | = | 5.68 |
| [11CH3]Oc1cccc2c1CCN(CCCc1c[nH]c3ccc(Br)cc13)C2 | = | 5.46 |
| Fc1cccc(Cl)c1Oc1ncccc1C1CCNCC1 | < | 5.21 |
| Fc1cccc(Oc2cccc(Cl)c2Cl)c1OC1CNC1 | = | 6.51 |
| Fc1ccccc1Oc1cccc(F)c1OC1CCNC1 (stereo unspecified) | = | 5.41 |
| COc1cccc(N2CCN(CCCCn3ncc(=O)n(C)c3=O)CC2)c1 | < | 5.00 |
| c1ccc(Oc2ccccc2C2CCNCC2)cc1 | = | 6.55 |

* * *

// cross-study collection: pKi for Sodium-dependent dopamine transporter (Homo sapiens, UniProt Q01959)
pKi: −log10 of the molar value.

| molecule | rel | pKi |
| --- | --- | --- |
| c1ccc(CN[C@H]2C3C4CC5C6C4CC3C6C52)cc1 (stereo partly specified) | = | 5.46 |
| Cc1ccc(Sc2ccccc2CN)c(N)c1 | = | 5.28 |
| Fc1cccc(OCc2ccccc2C2CCNCC2)c1 | = | 6.34 |
| NCC1CCC(CCc2c(F)c(F)c(F)c(F)c2F)O1 (stereo unspecified) | < | 5.00 |
| Fc1ccc(COc2ccc(Cl)cc2C2CCNCC2)cc1 | = | 5.26 |
| CN1CCC(S(=O)(=O)c2ccc3nc(NC(=O)NC(=O)c4cc(N5CCOCC5)ccc4Cl)sc3c2)CC1 | = | 6.54 |
| O=C1C(Cc2ccccc2N2CCNCC2)SCCN1c1ccc(Cl)c(Cl)c1 (stereo unspecified) | = | 7.06 |
| c1cncc([C@@H]2CN3CCC[C@@H]3c3cc(OCCCN4CCCCC4)ccc32)c1 | = | 6.97 |
| COc1ccc(CCC2CCC(CCN)O2)c2ccccc12 (stereo unspecified) | < | 5.00 |
| c1ccc(Oc2ccccc2OC2CNC2)cc1 | = | 5.68 |
| Cc1ccc(Sc2ccccc2CN(C)C)c(NCc2ccc([N+](=O)[O-])cc2)c1 | < | 6.00 |

* * *

Record set: Ki | Sodium-dependent dopamine transporter (Homo sapiens, UniProt Q01959) | literature, multiple sources.

| compound | Ki |
| --- | --- |
| Clc1ccccc1Oc1ncccc1C1CCNCC1 | 5150 nM |
| CN(CCCCC(c1ccc(F)cc1)c1ccc(F)cc1)C(=O)Nc1ccc(Cl)c(C(F)(F)F)c1 | 998 nM |
| CCOC(=O)[C@@H]1CN(CCn2c(=O)[nH]c3ccccc3c2=O)CC[C@@H]1c1ccccc1 (racemic) | 1610 nM |
| CNCc1cc(C#CCCN2CCC(F)CC2)ccc1Oc1ccc(SC)cc1 | 190 nM |
| CC(C)CN(C(=O)c1ccccc1C(C)C)[C@H]1CCNC1 | 3590 nM |
| Cc1ccc(Sc2ccccc2CN(C)C)c(NC(=O)c2ccc(F)cc2)c1 | > 1000 nM |

* * *

// read-out Ki, gathered for Sodium-dependent dopamine transporter (Homo sapiens, UniProt Q01959) from published studies
measured parameter: Ki (nM)

| molecule | rel | endpoint result |
| --- | --- | --- |
| Cc1cccc(F)c1Oc1cccc(F)c1OC1CCNCC1 | > | 6460 |
| CN(C)Cc1cc(OCCO)ccc1Sc1ccc(F)cc1N | > | 1000 |
| CNCc1cc(C#CCCN2CCOCC2)ccc1Oc1ccc(SC)c(C)c1 | = | 1000 |
| c1ccc(OCc2ccccc2C2CCNCC2)cc1 | = | 396 |
| CC(C)C(=O)N(Cc1cccc(Cl)c1Cl)[C@H]1CCNC1 | = | 640 |
| NCCC1CCC(Cc2ccccc2)O1 (centres undefined) | > | 10000 |
| Fc1ccc(OCc2ccc(Cl)c(Cl)c2)c(C2CCNCC2)c1 | = | 452 |
| CCNC(=O)c1ccc(-c2ccc3c(c2)CCN(CCN2CCC[C@H]2C)C3=O)cc1 | > | 10000 |
| [11CH3]Oc1ccc2c(c1)CCN(CCCc1c[nH]c3ccc(I)cc13)C2 | = | 3650 |
| Cc1cccc(F)c1Oc1ncccc1C1CCNCC1 | > | 6370 |
| Fc1ccccc1Oc1ccccc1OC1CCNCC1 | = | 4510 |
| CC(C)CN(C(=O)c1cccc(Cl)c1F)[C@H]1CCNC1 | = | 2560 |
| COc1ccc2c(c1)CCN([C@H]1CC[C@@H](c3c[nH]c4ccc(C#N)cc43)CC1)C2 | = | 370 |
| Cc1ccc(Sc2ccccc2CNCCCF)c(N)c1 | > | 10000 |
| CCNCc1ccccc1Sc1ccc(C)cc1N | = | 2120 |
| Cc1ccc(Sc2ccccc2CN(C)C)c(N)c1 | > | 1000 |
| C[C@H]1CN(C(=O)c2ccc(-c3cccc(OC(F)(F)F)c3)cc2)CCN1C(=O)c1ccc2cc[nH]c2c1 | > | 10000 |
| CC(C)CN(C(=O)c1cc(Cl)cc(Cl)c1)[C@H]1CCNC1 | = | 3070 |
| C1C2C3CC4C2C2C1C3[C@H](NCC13C5C6C7C5C1C7C63)C42 (some centres undefined) | = | 126 |
| CC(C)CN(Cc1ccc(C(F)(F)F)cc1F)C1CCNCC1 | = | 120 |
| CN(CCOC(c1ccccc1)c1ccccc1)CCN(C)CCc1ccc(F)cc1 | = | 30 |
| COc1ccccc1Oc1ncccc1C1CCNCC1 | = | 6410 |
| Cc1c(F)cccc1C(=O)N(CC(C)C)[C@H]1CCNC1 | = | 1610 |
| COc1cccc(-c2ccc(C(=O)N3CCN(C(=O)c4ccc5cc[nH]c5c4)[C@@H](C)C3)cc2)c1 | > | 10000 |
